Value Type: pKi
By convention, pKi is the negative base-10 log of a molar concentration.

S. aureus DNA gyrase (Staphylococcus aureus) data for CCNC(=O)Nc1nc2cc(-c3cnc(C(C)(C)O)nc3)c(F)c([C@H]3CCCO3)c2[nH]1 [Compound 23] ; its pKi: 8.05

###

# Target Or Test System: S. aureus TopoIV enzyme (Staphylococcus aureus, UniProt P0C1S7)
Value Type: pKi
By convention, pKi is the negative base-10 log of a molar concentration.

The reported value for CCNC(=O)Nc1nc2cc(-c3cnc(C(C)(C)O)nc3)c(F)c([C@H]3CCCO3)c2[nH]1 in terms of pKi is 7.92
